src = patent US8119624B2

- SYSTEM NAME: Full-length glucokinase (beta cell isoform) (Homo sapiens, UniProt P35557)
- Construct: Full-length glucokinase (beta cell isoform) was His-tagged at N-terminus; His tag (N); made in house
- Sequence (P35557 1-465): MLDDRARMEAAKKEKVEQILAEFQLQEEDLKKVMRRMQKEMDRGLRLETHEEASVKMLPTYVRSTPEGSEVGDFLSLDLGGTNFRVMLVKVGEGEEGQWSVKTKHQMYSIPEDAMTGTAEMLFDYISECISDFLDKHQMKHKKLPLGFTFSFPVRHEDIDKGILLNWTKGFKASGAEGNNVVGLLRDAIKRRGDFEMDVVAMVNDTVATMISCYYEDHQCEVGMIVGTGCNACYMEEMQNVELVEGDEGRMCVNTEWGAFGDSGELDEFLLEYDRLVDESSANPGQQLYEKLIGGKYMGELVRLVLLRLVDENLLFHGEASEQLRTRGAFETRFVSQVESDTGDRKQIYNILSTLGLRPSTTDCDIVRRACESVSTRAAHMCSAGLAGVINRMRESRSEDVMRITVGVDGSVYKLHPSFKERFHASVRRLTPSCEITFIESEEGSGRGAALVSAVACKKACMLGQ
- MEASUREMENT DESCRIPTION: Glucokinase biochemical assay (PK/LDH-coupled, NADH depletion at 340 nm): % activation, EC50, % max activation
- SETUP CONDITIONS: 5 mM glucose; fitted maximum activation; read-out: % Max Activation
TEST READOUT: Emax (%)

{"COMPOUND": "Cn1ccc(NC(=O)c2cc(Oc3ccc(C(=O)N4CC(F)(F)C4)cc3F)c3c(c2)OC(C)(C)C3)n1", "UNITS SYMBOL": "%", "RESULT": 174}

P: Cn1ncc(NC(=O)c2cc(OC3CN(S(C)(=O)=O)C3)c3c(c2)OC(C)(C)C3)n1
Q: CC1Cc2c(Oc3ccc(S(C)(=O)=O)cc3)cc(C(=O)Nc3ccn(C)n3)cc2O1 (centres unmarked)
R: Cc1ccc(NC(=O)c2cc(Oc3ccc(C(=O)N(C)C)c(F)c3)c3c(c2)OC(C)(C)C3)nc1
Order the records so the highest Emax appears first and the lowest last. // ordering of labels required in reply
P, Q, R

1: COc1cnc(NC(=O)c2cc(Oc3ccc(S(=O)(=O)N4CCC4)cc3)c3cc(C)oc3c2)cn1
2: Cc1ccc(NC(=O)c2cc(Oc3ccc(S(C)(=O)=O)cc3)c3cc(CO)oc3c2)nc1
3: COc1ccnc(NC(=O)c2cc(Oc3ccc(S(=O)(=O)N(C)C)c(F)c3)c3cc(C)oc3c2)c1
Task for the reader: rank each entry by its Emax, from the minimum upward. // respond by listing labels in the order requested
3, 2, 1
(3: 50%, 2: 78%, 1: 179%)

P: Cc1cc2c(Oc3ccc(S(C)(=O)=O)cn3)cc(C(=O)Nc3cnc(N(C)C)cn3)cc2o1
Q: CCc1ccc(NC(=O)c2cc(Oc3ccc(S(C)(=O)=O)cc3)c3cc(C)oc3c2)nc1
Among P and Q , whose measured Emax is the smaller figure? Give the chosen item's label as your response.
Q
(Q: 74%, P: 148%)

---

- SYSTEM NAME: Full-length glucokinase (beta cell isoform) (Homo sapiens, UniProt P35557)
- Construct: Full-length glucokinase (beta cell isoform) was His-tagged at N-terminus; His tag (N); made in house
- MEASUREMENT DESCRIPTION: Glucokinase biochemical assay (PK/LDH-coupled, NADH depletion at 340 nm): % activation, EC50, % max activation
- SETUP CONDITIONS: 5 mM glucose; GK activation; read-out: EC50
pEC50: −log10 of the molar value.
TEST READOUT: pEC50

The cases that follow already have their pEC50 on record.
{"COMPOUND": "Cn1ncc(NC(=O)c2cc(Oc3ccc(S(C)(=O)=O)c(F)c3)c3c(c2)OC(C)(C)C3)n1 [Example 117]", "pEC50": 6.82}
{"COMPOUND": "Cc1ccc(NC(=O)c2cc(Oc3ccc(S(C)(=O)=O)cc3)c3cc(C(=O)N(C)C)oc3c2)nc1 [Example 285]", "pEC50": 6.26}

A: COCCN(C)C(=O)c1ccc(Oc2cc(C(=O)Nc3ccn(C)n3)cc3c2CC(C)(C)O3)cc1F [Example 64]
B: COc1ccnc(NC(=O)c2cc(Oc3ccc(S(=O)(=O)N(C)C)c(F)c3)c3cc(C)oc3c2)c1 [Example 293]
// returns A or B , whichever has the lower pEC50 I would appreciate it if you answered with the label of your choice.
B

---

- SYSTEM NAME: Full-length glucokinase (beta cell isoform) (Homo sapiens, UniProt P35557)
- Construct: Full-length glucokinase (beta cell isoform) was His-tagged at N-terminus; His tag (N); made in house
- Sequence (P35557 1-465): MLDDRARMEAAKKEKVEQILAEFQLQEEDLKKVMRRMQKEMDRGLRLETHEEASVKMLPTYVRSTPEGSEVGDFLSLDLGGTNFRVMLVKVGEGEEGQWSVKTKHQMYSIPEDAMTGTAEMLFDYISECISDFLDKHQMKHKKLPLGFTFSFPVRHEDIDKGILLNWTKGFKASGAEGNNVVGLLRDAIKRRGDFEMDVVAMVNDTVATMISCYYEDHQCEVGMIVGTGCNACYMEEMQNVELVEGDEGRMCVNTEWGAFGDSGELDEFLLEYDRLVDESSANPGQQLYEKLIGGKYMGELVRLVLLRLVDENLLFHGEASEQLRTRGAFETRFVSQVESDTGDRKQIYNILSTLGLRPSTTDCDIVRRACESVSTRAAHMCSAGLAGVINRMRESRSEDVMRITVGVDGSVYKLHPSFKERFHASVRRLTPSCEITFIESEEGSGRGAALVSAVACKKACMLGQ
- MEASUREMENT DESCRIPTION: Glucokinase biochemical assay (PK/LDH-coupled, NADH depletion at 340 nm): % activation, EC50, % max activation
- SETUP CONDITIONS: 5 mM glucose; fitted maximum activation; read-out: % Max Activation
TEST READOUT: Emax (%)

As a guide, the following entries are already answered.
{"COMPOUND": "Cn1ccc(NC(=O)c2cc(OCc3cc(O)nc(C4CC4)n3)c3c(c2)OC(C)(C)C3)n1 [Example 95]", "RESULT": 145}
{"COMPOUND": "Cc1ccc(NC(=O)c2cc(Oc3ccc(S(C)(=O)=O)cc3)cc3c2CCO3)nc1 [Example 6]", "RESULT": 123}

I: Cc1ccc(NC(=O)c2cc(Oc3ccc(S(=O)(=O)N4CCC4)cc3)c3c(c2)OC(C)(C)C3)nc1 [Example 124]
II: Cc1ccc(NC(=O)c2cc(Oc3ccc(S(C)(=O)=O)cc3)c3ocnc3c2)nc1 [Example 367]
Look at I and II . Which one has the lower recorded Emax number? Refer to your chosen entry by its label in the reply.
II
(II: 59%, I: 113%)

---

- SYSTEM NAME: Full-length glucokinase (beta cell isoform) (Homo sapiens, UniProt P35557)
- Construct: Full-length glucokinase (beta cell isoform) was His-tagged at N-terminus; His tag (N); made in house
- MEASUREMENT DESCRIPTION: Glucokinase biochemical assay (PK/LDH-coupled, NADH depletion at 340 nm): % activation, EC50, % max activation
- SETUP CONDITIONS: 5 mM glucose, 1 mM ATP, room temperature; read-out: EC50
TEST READOUT: EC50 (µM)

{"COMPOUND STRUCTURE": "Cn1ccc(NC(=O)c2cc(Oc3cnc(C(=O)N4CCC4)cn3)c3c(c2)OC(C)(C)C3)n1", "EC50, µM": 0.36}

I: Cc1ccc(NC(=O)c2cc(Oc3ccc(S(C)(=O)=O)cc3)c3c(c2)C(=O)N(CC(C)C)C3)nc1
II: CC(C)CN1Cc2c(Oc3ccc(S(C)(=O)=O)cc3)cc(C(=O)Nc3ccn(C)n3)cc2C1=O
Returns: the argument ( I or II ) having the larger EC50. Respond with the label that goes with your answer.
II
(II: 9.3 µM, I: 3 µM)

---

- SYSTEM NAME: Full-length glucokinase (beta cell isoform) (Homo sapiens)
- Construct: Full-length glucokinase (beta cell isoform) was His-tagged at N-terminus; His tag (N); made in house
- MEASUREMENT DESCRIPTION: Glucokinase biochemical assay (PK/LDH-coupled, NADH depletion at 340 nm): % activation, EC50, % max activation
- SETUP CONDITIONS: 10 uM compound; 5 mM glucose; % Activation=(Va/Vo−1)×100; read-out: % Activation at 10 uM
TEST READOUT: activation at 10 µM (%)

{"COMPOUND STRUCTURE": "Cc1cc2c(Oc3ccc(S(=O)(=O)N(C)C)c(F)c3)cc(C(=O)Nc3ccn(C)n3)cc2o1", "RESULT": 166}
{"COMPOUND STRUCTURE": "CC1(C)Cc2c(Oc3ccc(S(C)(=O)=O)cc3)cc(C(=O)Nc3ccon3)cc2O1", "RESULT": 197}
{"COMPOUND STRUCTURE": "Cc1ccc(NC(=O)c2cc(Oc3ccc(S(C)(=O)=O)cc3)c3ccsc3c2)nc1", "RESULT": 114}

1: Cn1ccc(NC(=O)c2cc(OCC3CC3)c3c(c2)OC(C)(C)C3)n1
2: CN(C)S(=O)(=O)c1cc(F)c(Oc2cc(C(=O)Nc3cnn(C)n3)cc3c2CC(C)(C)O3)cc1F
Compare the recorded activation at 10 µM of 1 and 2 ; state which is larger. // respond with label for picked entry
2
(2: 218%, 1: 139%)
